Values compiled from patent US20110165145A1.

# target or test system: T1, IGF-IIE (amino acids 1-104 of pro-IGF-II) (human, UniProt P01344 25-128)
# T1 construct: Biotinylated in the selections; also called IGF-IIE (104aa)
# T1 sequence (P01344 25-128): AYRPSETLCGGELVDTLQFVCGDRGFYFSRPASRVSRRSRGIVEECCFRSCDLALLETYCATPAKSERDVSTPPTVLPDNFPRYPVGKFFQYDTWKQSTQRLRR
# test details: competition SPR (BIACORE T100), affinity in solution, free ligand read on huIR-A ECD; measurement 1
Recorded pKd by entry
Scale: negative log10 of molar concentration, which is what pKd denotes.

>  <binder>
M0064-E04 Fab (Fab, V domains shown, soluble Fab (sFab); also called R0032-A03; 566A-M0064-E04) VH: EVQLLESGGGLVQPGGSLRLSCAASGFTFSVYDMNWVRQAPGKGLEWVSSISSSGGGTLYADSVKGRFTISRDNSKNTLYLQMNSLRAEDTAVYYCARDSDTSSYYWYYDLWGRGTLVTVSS VL: DIQMTQSPSSLSASVGDRVTITCQASHDISNYLNWYQQKPGKAPKLLIYAASRLQSGVPSRFSGGGSGTDFSLTISSLQAEDFATYYCQQSYSFPRTFGQGTNLEIKR

>  <quantity measured>
pKd

>  <quantitative result>
9.37

$$$$

Next up:
Please report the recorded pKd for M0072-C06 Fab (Fab, V domains shown, soluble Fab (sFab); also called R0032-A09) VH: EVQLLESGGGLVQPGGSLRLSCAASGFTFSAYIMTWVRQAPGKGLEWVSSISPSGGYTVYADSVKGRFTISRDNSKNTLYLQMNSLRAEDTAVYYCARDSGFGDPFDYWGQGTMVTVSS VL: DIQMTQSPSSLSASVGDRVTITCRASQSIRNYLNWYQQKPGKAPKLLIYAASKLEDGVPSRFSGSGTGTDFTLTIRSLQPEDFASYFCQQSYSSPGITFGPGTKVEIKR .
8.40
